target: Helios (Homo sapiens, UniProt Q96SW2+Q9UKS7); construct: fluorescently labelled antibodies against Helios and Ikaros; endogenous in cells; host or cells: Jurkat cells; experiment: Helios Cellular Degradation Assay (flow cytometry, Helios-PE antibody staining, 72 h); format: cell-based; conditions: Jurkat cells, 72 h incubation, flow cytometry
Sequence (Q9UKS7 whole entry): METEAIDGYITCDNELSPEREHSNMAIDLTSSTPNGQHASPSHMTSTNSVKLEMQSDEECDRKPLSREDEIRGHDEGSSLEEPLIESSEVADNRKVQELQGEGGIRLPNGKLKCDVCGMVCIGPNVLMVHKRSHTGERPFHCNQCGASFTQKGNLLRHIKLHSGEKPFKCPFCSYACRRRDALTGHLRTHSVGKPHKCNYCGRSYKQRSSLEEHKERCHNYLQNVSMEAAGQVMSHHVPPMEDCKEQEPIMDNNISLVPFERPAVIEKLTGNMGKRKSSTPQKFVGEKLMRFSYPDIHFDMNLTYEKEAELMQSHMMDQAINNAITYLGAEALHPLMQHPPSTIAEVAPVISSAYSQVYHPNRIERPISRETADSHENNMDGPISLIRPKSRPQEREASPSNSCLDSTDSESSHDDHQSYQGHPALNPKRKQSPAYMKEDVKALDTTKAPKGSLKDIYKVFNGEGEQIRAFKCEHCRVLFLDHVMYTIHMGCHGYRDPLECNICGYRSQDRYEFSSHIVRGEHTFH
Sequence (Q96SW2 whole entry): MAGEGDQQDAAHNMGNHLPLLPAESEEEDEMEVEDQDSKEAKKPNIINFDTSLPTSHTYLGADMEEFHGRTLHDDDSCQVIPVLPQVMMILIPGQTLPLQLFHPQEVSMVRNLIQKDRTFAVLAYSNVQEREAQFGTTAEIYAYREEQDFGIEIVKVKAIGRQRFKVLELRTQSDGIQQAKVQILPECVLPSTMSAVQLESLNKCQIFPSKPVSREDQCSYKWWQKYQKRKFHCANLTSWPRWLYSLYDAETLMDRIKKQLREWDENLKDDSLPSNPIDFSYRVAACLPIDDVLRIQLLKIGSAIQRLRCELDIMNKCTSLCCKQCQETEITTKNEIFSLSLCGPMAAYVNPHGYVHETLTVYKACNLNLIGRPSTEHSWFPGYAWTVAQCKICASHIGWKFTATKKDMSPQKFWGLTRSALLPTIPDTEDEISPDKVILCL
Sequence (Q16531 whole entry partner): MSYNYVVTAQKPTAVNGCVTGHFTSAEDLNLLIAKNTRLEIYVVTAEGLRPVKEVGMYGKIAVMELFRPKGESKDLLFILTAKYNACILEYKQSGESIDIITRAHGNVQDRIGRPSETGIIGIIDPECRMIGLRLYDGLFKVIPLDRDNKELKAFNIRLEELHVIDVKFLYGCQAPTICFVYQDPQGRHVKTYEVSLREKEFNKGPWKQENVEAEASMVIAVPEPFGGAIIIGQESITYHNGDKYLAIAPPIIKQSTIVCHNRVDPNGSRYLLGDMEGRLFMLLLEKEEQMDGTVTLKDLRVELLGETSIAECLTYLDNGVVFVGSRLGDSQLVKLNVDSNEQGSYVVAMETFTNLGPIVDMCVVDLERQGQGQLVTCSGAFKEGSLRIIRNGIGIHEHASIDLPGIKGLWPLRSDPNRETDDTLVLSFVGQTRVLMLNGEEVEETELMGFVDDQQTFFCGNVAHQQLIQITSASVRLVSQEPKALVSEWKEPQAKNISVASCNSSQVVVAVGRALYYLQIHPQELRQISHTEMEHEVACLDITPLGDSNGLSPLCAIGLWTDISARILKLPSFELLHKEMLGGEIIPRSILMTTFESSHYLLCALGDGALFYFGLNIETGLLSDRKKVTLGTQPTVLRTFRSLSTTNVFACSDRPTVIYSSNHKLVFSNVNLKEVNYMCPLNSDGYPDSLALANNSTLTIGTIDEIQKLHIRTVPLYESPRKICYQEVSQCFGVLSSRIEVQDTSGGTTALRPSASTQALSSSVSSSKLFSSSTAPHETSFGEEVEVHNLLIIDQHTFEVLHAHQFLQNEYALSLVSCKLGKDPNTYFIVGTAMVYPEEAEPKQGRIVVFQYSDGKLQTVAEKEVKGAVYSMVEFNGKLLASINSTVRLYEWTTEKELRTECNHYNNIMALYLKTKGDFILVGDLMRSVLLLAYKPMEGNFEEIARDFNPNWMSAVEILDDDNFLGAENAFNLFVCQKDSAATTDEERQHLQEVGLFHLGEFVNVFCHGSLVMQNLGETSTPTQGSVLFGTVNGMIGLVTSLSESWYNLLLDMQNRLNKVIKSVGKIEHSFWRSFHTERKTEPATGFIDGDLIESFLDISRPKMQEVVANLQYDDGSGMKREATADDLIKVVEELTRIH
ASSAY ENDPOINT: DC50 (nM)
// return numeric value only (unit: nM, not printed)

Tell me the measured DC50 of CN(Cc1ccnc(-c2ccc3c(c2)CN(C2CCC(=O)NC2=O)C3=O)c1)Cc1cccc2cccnc12 (stereo not shown) , please.
1580

Tell me the measured DC50 of O=C1CCC(N2Cc3cc(-c4cc(CN5CC(c6ccccc6)C5)c(Cl)cn4)ccc3C2=O)C(=O)N1 (stereo not shown) , please.
230

Tell me the measured DC50 of CCN(C)Cc1ccnc(-c2ccc3c(c2)CN(C2CCC(=O)NC2=O)C3=O)c1 (stereo not shown) [Example 4] , please.
96

Tell me the measured DC50 of O=C1CCC(N2Cc3cc(-c4cc(CNCCCc5ccccc5)ccn4)ccc3C2=O)C(=O)N1 (stereo not shown) , please.
6

Tell me the measured DC50 of CCCNCc1ccnc(-c2ccc3c(c2)CN(C2CCC(=O)NC2=O)C3=O)c1 (stereo not shown) , please.
45

Tell me the measured DC50 of NC(=O)C1CCN(Cc2ccnc(-c3ccc4c(c3)CN(C3CCC(=O)NC3=O)C4=O)c2)CC1 (stereo not shown) , please.
727

Tell me the measured DC50 of CC(=O)NCCNCc1ccnc(-c2ccc3c(c2)CN(C2CCC(=O)NC2=O)C3=O)c1 (stereo not shown) , please.
3530

Tell me the measured DC50 of CC1(C)CCCN1Cc1ccnc(-c2ccc3c(c2)CN(C2CCC(=O)NC2=O)C3=O)c1 (stereo not shown) , please.
53

Tell me the measured DC50 of O=C1CCC(N2Cc3cc(-c4cc(CN[C@@H]5C[C@H]5c5ccccc5)ccn4)ccc3C2=O)C(=O)N1 (stereo partly shown) , please.
137

Tell me the measured DC50 of COc1ccc(CCNCc2ccnc(-c3ccc4c(c3)CN(C3CCC(=O)NC3=O)C4=O)c2)cc1 (stereo not shown) , please.
34

Tell me the measured DC50 of CC(C)(C)CNCc1ccnc(-c2ccc3c(c2)CN(C2CCC(=O)NC2=O)C3=O)c1 (stereo not shown) , please.
55

Tell me the measured DC50 of O=C1CCC(N2Cc3cc(-c4cc(CN[C@@H]5CCC[C@@H]5c5ccccc5)ccn4)ccc3C2=O)C(=O)N1 (stereo partly shown) , please.
40

Tell me the measured DC50 of O=C1CCC(N2Cc3cc(-c4cc(CNC5CCC5)ccn4)ccc3C2=O)C(=O)N1 (stereo not shown) , please.
45

Tell me the measured DC50 of CN(C)C(=O)C1CN(Cc2ccnc(-c3ccc4c(c3)CN(C3CCC(=O)NC3=O)C4=O)c2)C1 (stereo not shown) , please.
190

Tell me the measured DC50 of COCCNCc1ccnc(-c2ccc3c(c2)CN(C2CCC(=O)NC2=O)C3=O)c1 (stereo not shown) , please.
192

Tell me the measured DC50 of O=C1CCC(N2Cc3cc(-c4cc(CN5CC(c6ccccc6)C5)c(F)cn4)ccc3C2=O)C(=O)N1 (stereo not shown) , please.
27

Tell me the measured DC50 of CC(C)N(Cc1ccccc1)Cc1ccnc(-c2ccc3c(c2)CN(C2CCC(=O)NC2=O)C3=O)c1 (stereo not shown) , please.
154

These entries and their values trace back to patent US11548870B2.
